Plant response rating, Corn values by entry
- Test system: corn (Zea mays)
- method.notes: Test A pre-/postemergence plant response
- Type: in vivo
- condition.set: Postemergence, 500 g ai/ha; 0 to 100 scale, 0 = no effect, 100 = complete control; approx. ten days
Output: the number by itself.

Before answering, review these 2 worked examples.
CC(C)CC(=O)OC1=C(C(=O)c2cnc(-c3ccccc3)n(-c3ccccc3)c2=O)C(=O)CCC1: 30
O=C1CCCC(OC(=O)C2CC2)=C1C(=O)c1cnc(-c2ccccc2)n(-c2ccccc2)c1=O: 60

Proceed to the following item.
Task: Missing value: Plant response rating, Corn, corn (Zea mays), entry Cc1c(Cl)cccc1-n1c(-c2ccccc2)ncc(C(=O)C2=C(O)CCCC2=O)c1=O . Fill in?
Output: 50

----------
- Test system: green foxtail (Setaria viridis)
- method.notes: Test B pre-/postemergence plant response
- Type: in vivo
- condition.set: 62 g ai/ha, postemergence; 0 is no effect, 100 is complete control; 13 to 15 days
Readings of Foxtail, Green plant response rating (0 to 100 scale) for the listed compounds
Lab note: record just the number, no unit beside it.

Here is how some compounds turned out for Foxtail, Green plant response rating (0 to 100 scale).
CCCn1c(-c2ccc(F)cc2)ncc(C(=O)C2=C(O)CCCC2=O)c1=O [Compound 102]: 90
COCCn1c(-c2ccccc2)ncc(C(=O)C2=C(O)CCCC2=O)c1=O [Compound 85]: 95
CC(C)CC(=O)OC1=C(C(=O)c2cnc(-c3ccccc3)n(-c3ccccc3)c2=O)C(=O)CCC1 [Compound 83]: 95
O=C1CCCC(OC(=O)C2CC2)=C1C(=O)c1cnc(-c2ccccc2)n(-c2ccccc2)c1=O [Compound 88]: 98

Task: Using the record for CCCCCn1c(-c2ccccc2)ncc(C(=O)C2=C(O)CCCC2=O)c1=O [Compound 89] , report its Foxtail, Green plant response rating (0 to 100 scale).
Output: 70

Task: Returns the measured Foxtail, Green plant response rating (0 to 100 scale) for the input compound. Input: CCCc1ncc(C(=O)C2=C(O)CCCC2=O)c(=O)n1-c1ccccc1C [Compound 73]
Output: 90

Task: Reported Foxtail, Green plant response rating (0 to 100 scale) for O=C1CCCC(O)=C1C(=O)c1cnc(-c2ccccc2Br)n(-c2ccccc2)c1=O [Compound 71] : what is it?
Output: 60

Task: Bench note: what Foxtail, Green plant response rating (0 to 100 scale) did COCCn1c(-c2cccc(C)c2)ncc(C(=O)C2=C(O)CCCC2=O)c1=O [Compound 117] show?
Output: 70

----------
- Test system: soybean (Glycine max)
- method.notes: Test B pre-/postemergence plant response
- Assay type: in vivo
- condition.set: Preemergence, 62 g ai/ha; scale 0 to 100 (0 no effect, 100 complete control)
Label scheme for Plant response rating, Soybean: lower than 60 is not met, 60 and above is met.

Observe how each entry below is paired with its result.
COCCn1c(-c2cc(F)cc(F)c2)ncc(C(=O)C2=C(O)CCCC2=O)c1=O: not met
CCCCn1c(-c2cc(F)cc(F)c2)ncc(C(=O)C2=C(O)C3CCC(C3)C2=O)c1=O (stereo not drawn): not met
Cc1ccccc1-n1c(-c2ccccc2)ncc(C(=O)C2=C(O)CCCC2=O)c1=O: met

Task: Dear colleague, could you confirm whether CCCCc1ncc(C(=O)C2=C(O)CCCC2=O)c(=O)n1-c1cccc(C)c1 has Plant response rating, Soybean at or above 60?
Output: not met
